These measurements were taken from patent US9212130B2.

# TARGET_OR_TEST_SYSTEM: human P2X3 receptor (Homo sapiens (Human))
# ASSAY_TEXT: Evaluation of human P2X3 receptor inhibitory activity (ATP-induced Fluo-3 fluorescence, FDSS 3000)
# RUN_PARAMETERS: C6BU-1 cell transfected with human P2X3 receptor gene
pIC50: −log10 of the molar value.
Label rule met for high-side pIC50 (at or above 7) and rule not met for low-side pIC50 (below it).

CC(C)Oc1ccc(Nc2ncc(N3CCOCC3)c(=O)n2Cc2ccc(Cl)cc2)cc1F
rule not met
CCOC(=O)CCC1=CN(Cc2ccc(Cl)cc2)C(Nc2ccc(OC(C)C)c(Cl)c2)=NC1O (stereo not drawn)
rule met
COC(=O)[C@@H](C)Cn1c(=O)cc(Nc2ccc(OC(C)C)c(C)c2)n(Cc2ccc(Cl)cc2)c1=O
rule met
CC(C)Oc1ccc(Nc2[nH]c(=O)n(C)c(=O)c2Cc2ccc(Cl)cc2)cc1F
rule not met
CCOC(=O)c1cnc(Nc2ccc(OC(C)C)c(Cl)c2)n(Cc2ccc(Cl)cc2)c1=O
rule met

Prompt: Textbook exercise: given the entry "CC(C)Oc1ccc(Nc2ncc(NC(=O)c3cc[nH]c(=O)c3)c(=O)n2Cc2ccc(Cl)cc2)cc1F" , state whether its pIC50 is greater than or equal to 7.
Response: rule met

Prompt: Decide: is the reported value of pIC50 for "CCn1c(=O)cc(Nc2ccc(Oc3cncc(C(=O)OC)c3)cc2)n(Cc2ccc(Cl)cc2)c1=O" equal to or greater than 7?
Response: rule met

Prompt: Is it the case that "CC(C)Oc1ccc(Nc2nc(OCCO)c3ccccc3c2C(=O)c2ccc(Cl)cc2)cc1F" has pIC50 reaching or exceeding 7?
Response: rule not met

Prompt: Given the entry "COC(=O)C(C)(C)Cn1c(=O)cc(Nc2ccc(OC(C)C)c(Cl)c2)n(Cc2ccc(Cl)cc2)c1=O" , answer whether its pIC50 meets or surpasses 7.
Response: rule met

Prompt: For this molecule, is measured pIC50 7 or higher? "CCOC(=O)c1cn(Cc2ccc(Cl)cc2)c2cc(Nc3ccccc3)ccc2c1=O"
Response: rule not met

Prompt: Quick check, pIC50 >= 7? "CCOC(=O)/C=C/c1cnc(Nc2ccc(OC(C)C)c(F)c2)n(Cc2ccc(Cl)cc2)c1=O"
Response: rule not met

Prompt: I'd appreciate it if you could say whether "CC(C)Oc1ccc(Nc2nc(=O)c(C(=O)NC3CCOCC3)cn2Cc2ccc(Cl)cc2)cc1F" has pIC50 at least equal to 7.
Response: rule met

Prompt: Decide: pIC50 of "CC(C)Oc1ccc(Nc2cc(=O)n(CC(C)(C)C(=O)O)c(=O)n2Cc2ccc(Cl)cc2)cc1F" >= 7?
Response: rule met

---

# TARGET_OR_TEST_SYSTEM: human P2X3 receptor (Homo sapiens (Human), UniProt P56373)
# Sequence (P56373 whole entry): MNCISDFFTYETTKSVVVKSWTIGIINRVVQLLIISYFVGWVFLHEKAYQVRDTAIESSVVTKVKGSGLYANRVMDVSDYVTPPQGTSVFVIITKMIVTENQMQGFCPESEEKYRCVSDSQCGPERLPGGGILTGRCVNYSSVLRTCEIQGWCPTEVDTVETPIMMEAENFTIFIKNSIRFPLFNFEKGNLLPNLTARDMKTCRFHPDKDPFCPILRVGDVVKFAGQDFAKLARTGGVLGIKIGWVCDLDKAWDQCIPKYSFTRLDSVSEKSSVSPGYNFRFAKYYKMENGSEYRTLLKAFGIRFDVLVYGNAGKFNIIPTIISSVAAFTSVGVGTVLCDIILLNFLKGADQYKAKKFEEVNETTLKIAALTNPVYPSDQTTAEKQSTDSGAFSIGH
# ASSAY_TEXT: Evaluation of human P2X3 receptor inhibitory activity (ATP-induced Fluo-3 fluorescence, FDSS 3000)
# RUN_PARAMETERS: C6BU-1 cell transfected with human P2X3 receptor gene
OBSERVED_PROPERTY: IC50 (nM)
The reply should contain only the number, in nM.

# IC50 of "Cc1nc2ccc(Nc3nc(=O)c(C(=O)NC4COC4)cn3Cc3ccc(Cl)cc3)cc2s1" = 133

Reported IC50 ( "CC(=O)Nc1c(O)[nH]/c(=N\c2ccc(OC(C)C)cc2)n(Cc2ccc(Cl)cc2)c1=O" ) = 518

Field IC50 (entry "CC(C)Oc1ccc(Nc2ncc(NC(=O)C(C)(C)C#N)c(=O)n2Cc2ccc(Cl)cc2)cc1F" ) reads 23

The compound listed as "CC(C)Oc1ccc(Nc2cc(=O)n(CC(=O)NCCO)c(=O)n2Cc2ccc(Cl)cc2)cc1F" shows IC50 equal to 14

---

# TARGET_OR_TEST_SYSTEM: human P2X3 receptor (Homo sapiens (Human))
# ASSAY_TEXT: Evaluation of human P2X3 receptor inhibitory activity (ATP-induced Fluo-3 fluorescence, FDSS 3000)
# RUN_PARAMETERS: C6BU-1 cell transfected with human P2X3 receptor gene
Collected IC50 values appear next to each entry.
Numbers only here, please. The scale is µM.

Short answer for "CC(C)Oc1ccc(Nc2ncc(C(=O)NC3CCOCC3)c(=O)n2Cc2ccc(Cl)cc2)cc1F" : IC50 was 0.067

Sample "COC(=O)Cn1c(=O)cc(Nc2ccc(OC(C)C)c(F)c2)n(Cc2ccc(Cl)cc2)c1=O" ; IC50 observed: 0.096

For this compound ( "CC(=O)Nc1cnc(Nc2ccc(Oc3ccc(C)nc3)cc2)n(Cc2ccc(Cl)cc2)c1=O" ), measured IC50 is 0.043

Per the records, this compound ( "CC(C)Oc1ccc(Nc2cc(=O)n(Cc3ccccc3)cc2C(=O)c2ccc(Cl)cc2)cc1Cl" ) has IC50 equal to 0.128

Record "CCn1c(=O)cc(Nc2ccc(Oc3ccnc(C(=O)O)c3)cc2)n(Cc2ccc(Cl)cc2)c1=O" . Reported IC50: 0.003

IC50 reported for this compound "COC(=O)[C@@H](C)Cn1c(=O)cc(Nc2ccc(OC(C)C)cc2)n(Cc2ccc(Cl)cc2)c1=O" : 0.105

Measured IC50 of "CC(=O)N1CCC(C(=O)Nc2cnc(Nc3ccc4nc(C)sc4c3)n(Cc3ccc(Cl)cc3)c2=O)CC1" : 0.018

The compound identified as "CC(C)Oc1ccc(Nc2ncc(C(N)=O)c(=O)n2Cc2ccc(Cl)cc2)cc1F" registered its IC50 at 0.047

The reported value for "COC(=O)c1cccc(Oc2ccc(Nc3ncc(NC(=O)C4CCOCC4)c(=O)n3Cc3ccc(Cl)cc3)cc2)c1" in terms of IC50 is 0.003

Kindly note the recorded IC50 for "CC(C)Oc1ccc(Nc2nc(=O)c(N3CCOCC3)cn2Cc2ccc(Cl)cc2)cc1F" , which is 0.397

Record "COCCC(=O)Nc1cnc(Nc2ccc(OC(C)C)c(F)c2)n(Cc2ccc(Cl)cc2)c1=O" , field IC50: 0.024

Recorded IC50 (compound "COC(=O)[C@@H](C)Cn1c(=O)cc(Nc2ccc(OC(C)C)c(Cl)c2)n(Cc2ccc(Cl)cc2)c1=O" ): 0.016

The reported IC50 of the compound "Cc1nc2ccc(Nc3nc(C)c(C(N)=O)c(=O)n3Cc3ccc(Cl)cc3)cc2s1" was 0.182

Lab note: "CCOC(=O)c1c(C)nc(Nc2ccc3nc(C)sc3c2)n(Cc2ccc(Cl)cc2)c1=O" gave IC50 of 0.273

The value of IC50 measured for the compound "C=Cc1c(C)nc(Nc2ccc3nc(C)sc3c2)n(Cc2ccc(Cl)cc2)c1=O" turned out to be 0.385

Value of measured IC50 for the entry "O=C(O)c1cncc(Oc2ccc(Nc3ncc(NC(=O)C4CCOCC4)c(=O)n3Cc3ccc(Cl)cc3)cc2)c1" : 0.004

// sample "CC(C)Oc1ccc(Nc2ncc(NC(=O)C3CCOCC3)c(=O)n2Cc2ccc(Cl)cc2)cc1F" , its IC50 was 0.004

"CC(C)Oc1ccc(Nc2ncc(C(=O)N(C)CCO)c(=O)n2Cc2ccc(Cl)cc2)cc1F" has a reported IC50 of 0.509

---

# ASSAY_TEXT: Metabolism stability test (pooled human hepatic microsomes)
# Assay type: in vitro ADME
# RUN_PARAMETERS: human liver microsomes 0.5 mg protein/mL; 37° C., 30 minutes; 1 mmol/L NADPH; compound concentration 0.5 μmol/L
Listed here: items and their measured remaining rate.
Answer format: numeric, % implied, no suffix.

O=C(O)c1cccc(Oc2ccc(Nc3ncc(NC(=O)C4CCOCC4)c(=O)n3Cc3ccc(Cl)cc3)cc2)c1
101
CCOC(=O)c1cn(Cc2ccc(Cl)cc2)c(Nc2ccc(OC(C)C)c(F)c2)nc1=O
92
CC(C)Oc1ccc(Nc2ncc(NC(=O)NC3CCOCC3)c(=O)n2Cc2ccc(Cl)cc2)cc1F
89

For reference, reported remaining rate for "CC(C)Oc1ccc(Nc2cc(=O)n(C[C@H](C)C(=O)O)c(=O)n2Cc2ccc(Cl)cc2)cc1Cl" stands at 101

get_value(item= "CCn1c(=O)cc(Nc2ccc(Oc3cncc(C(=O)O)c3)cc2)n(Cc2ccc(Cl)cc2)c1=O" , readout=remaining rate) returns 105

The reported value for "CC(C)Oc1ccc(Nc2nc(=O)c(C(=O)NC3CCOCC3)cn2Cc2ccc(Cl)cc2)cc1F" in terms of remaining rate is 88

---

# ASSAY_TEXT: Bioavailability (BA) test
# Assay type: in vivo
# RUN_PARAMETERS: plasma; Mice or SD rats; oral 0.3 to 30 mg/kg vs intravenous 0.5 to 10 mg/kg; from AUCs
OBSERVED_PROPERTY: bioavailability
Answer format reminder: number followed by unit.

Cc1nc2ccc(Nc3nc(=O)c(C(=O)NC4CCOCC4)cn3Cc3ccc(Cl)cc3)cc2s1
41.7%
Cc1cc(Nc2cc(=O)n(C[C@H](C)C(=O)O)c(=O)n2Cc2ccc(Cl)cc2)ccc1OC(C)C
49.7%
Cc1ncc(Oc2ccc(Nc3ncc(NC(=O)C4CCOCC4)c(=O)n3Cc3ccc(Cl)cc3)cc2)cc1F
28.5%
CC(C)Oc1ccc(Nc2cc(=O)n(C[C@H](C)C(=O)O)c(=O)n2Cc2ccc(Cl)cc2)cc1Cl
29.2%

// next item, bioavailability requested
Reported bioavailability of "CC(C)Oc1ccc(Nc2cc(=O)n(CC(C)(C)C(=O)O)c(=O)n2Cc2ccc(Cl)cc2)cc1F" : 49.1%
